These entries and their values trace back to ChEMBL document CHEMBL1129206.

target: Subtilisin BL (Bacillus lentus, UniProt P29599, M222S)
The label rule met is reserved for Ki strictly under 70 µM; rule not met covers values equal to or above it.

>>> group("OB(O)c1ccc(Cl)cc1Cl")
"rule met"
>>> group("COc1ccc(CCB(O)O)cc1")
"rule not met"
>>> group("COc1ccc(B(O)O)cc1")
"rule not met"
>>> group("OB(O)CCc1ccc(Cl)cc1")
"rule not met"
>>> group("OB(O)c1ccc(Br)cc1")
"rule met"

Please determine if OB(O)CCc1ccc2ccccc2c1 is below 70 µM in terms of Ki. rule not met

Please determine if OB(O)c1ccccc1 is below 70 µM in terms of Ki. rule not met

Please determine if Nc1cccc(B(O)O)c1 is below 70 µM in terms of Ki. rule not met

* * *

Target: Subtilisin BL (Bacillus lentus)
Sequence (P29599 whole entry): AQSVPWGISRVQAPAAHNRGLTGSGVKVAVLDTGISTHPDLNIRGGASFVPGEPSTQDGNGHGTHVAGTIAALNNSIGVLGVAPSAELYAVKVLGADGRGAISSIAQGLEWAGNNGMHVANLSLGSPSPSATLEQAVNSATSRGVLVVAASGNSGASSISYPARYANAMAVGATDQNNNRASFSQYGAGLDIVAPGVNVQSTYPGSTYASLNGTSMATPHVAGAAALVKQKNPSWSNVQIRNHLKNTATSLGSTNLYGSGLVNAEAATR
Provide the recorded pKi for the entries that follow.
Numbers only, as −log10 of the molar value.

Recorded results for 3 molecules are shown here.
>>> meas_value("OB(O)CCc1ccc(Cl)cc1")
3.49
>>> meas_value("Nc1cccc(B(O)O)c1")
3.82
>>> meas_value("OB(O)c1ccc(Cl)cc1Cl")
5.04

# batch size: 5; output pKi per entry
1. COc1ccc(CCB(O)O)cc1
2. COc1ccc(B(O)O)cc1
3. OB(O)CCc1ccc2ccccc2c1
4. OB(O)c1ccccc1 [PHENYLBORONIC ACID]
5. OB(O)c1cccc(-c2ccccc2)c1

3.01
3.24
2.80
3.85
3.49

Please indicate pKi recorded for OB(O)c1ccc(Br)cc1 4.64
